Biological target: UniProt:P29371
Sequence (P29371 1-465): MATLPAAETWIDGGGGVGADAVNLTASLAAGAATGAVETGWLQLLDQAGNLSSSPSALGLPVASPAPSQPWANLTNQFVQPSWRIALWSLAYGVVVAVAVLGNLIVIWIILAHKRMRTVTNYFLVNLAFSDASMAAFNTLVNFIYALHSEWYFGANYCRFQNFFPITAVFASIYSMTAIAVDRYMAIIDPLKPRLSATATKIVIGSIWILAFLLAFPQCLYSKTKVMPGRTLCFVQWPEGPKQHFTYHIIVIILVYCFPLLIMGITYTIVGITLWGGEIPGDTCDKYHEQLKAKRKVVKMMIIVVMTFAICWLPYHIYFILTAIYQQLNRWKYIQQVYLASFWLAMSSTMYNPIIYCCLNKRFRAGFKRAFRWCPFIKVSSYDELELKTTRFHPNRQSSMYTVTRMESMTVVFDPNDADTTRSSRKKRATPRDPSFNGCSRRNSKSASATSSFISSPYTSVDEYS
Experiment: Signal transduction (ST), intracellular Ca++ (FLIPR), NK3
Type: cell-based
Details: read-out: pIC50 NK3 (converted)
Entries and their IC50
A number alone suffices; assume nM.

O=C(c1cnccn1)N1CCC(N2CCN(C3CCN(C(=O)c4cc(C(F)(F)F)cc(C(F)(F)F)c4)C(Cc4ccc(F)c(F)c4)C3)CC2)C1 (single isomer, unassigned) [Compound 237] | 3980
O=C(c1cc(C(F)(F)F)cc(C(F)(F)F)c1)N1CC[C@H](N2CCN(C3CCN(S(=O)(=O)c4ccccc4COCc4ccccc4)C3)CC2)C[C@H]1Cc1ccccc1 (some centres unmarked) | 1260
O=C(c1sccc1CCOCc1ccccc1)N1CCC(N2CCN([C@H]3CCN(C(=O)c4cc(C(F)(F)F)cc(C(F)(F)F)c4)[C@H](Cc4ccccc4)C3)CC2)C1 (some centres unmarked) | 631
N#Cc1cccc(C(=O)N2CCC(N3CCN(C4CCN(C(=O)c5cc(C(F)(F)F)cc(C(F)(F)F)c5)C(Cc5ccccc5)C4)CC3)C2)c1 (single isomer, unassigned) [Compound 192] | 631
O=C(c1c(Cl)cccc1Cl)N1CC[C@@H](N2CCN([C@H]3CCN(C(=O)c4cc(C(F)(F)F)cc(C(F)(F)F)c4)[C@H](Cc4ccc(Cl)c(Cl)c4)C3)CC2)C1 | 158
O=C(OCc1ccccc1C(=O)N1CCC(N2CCN([C@H]3CCN(C(=O)c4cc(C(F)(F)F)cc(C(F)(F)F)c4)[C@H](Cc4ccccc4)C3)CC2)C1)c1ccccc1 (some centres unmarked) | 1260
O=C(c1cc(C(F)(F)F)cc(C(F)(F)F)c1)N1CC[C@@H](N2CCN(C3CCN(S(=O)(=O)c4cccs4)C3)CC2)C[C@H]1Cc1ccc(Cl)c(Cl)c1 (relative stereo) | 794
O=C(c1cc(C(F)(F)F)cc(C(F)(F)F)c1)N1CC[C@H](N2CCN(C3CCN(C(=O)C4(O)CC4)C3)CC2)C[C@H]1Cc1ccccc1 (some centres unmarked) | 5010
Cc1nc2c(o1)CCn1ccnc1C2N1CCC(N2CCN(C3CCN(C(=O)c4cc(C(F)(F)F)cc(C(F)(F)F)c4)C(Cc4ccccc4)C3)CC2)C1 (centres unmarked) | 3980
O=C(c1cc(C(F)(F)F)cc(C(F)(F)F)c1)N1CC[C@H](N2CCN(C3CCN(c4cnccn4)C3)CC2)C[C@H]1Cc1ccccc1 (some centres unmarked) | 158

Turning to the following molecule.
// IC50 value for Cn1c(N2CCC(N3CCN([C@H]4CCN(C(=O)c5cc(C(F)(F)F)cc(C(F)(F)F)c5)[C@H](Cc5ccccc5)C4)CC3)C2)nc2ccccc21 (some centres unmarked) : 3980
